Cited source: ChEMBL document CHEMBL4017484

Assay: Acute toxicity in iv dosed BALB/c nude mouse assessed as mortality after 14 days
Assay type: organism-based
Conditions: in vivo
result type: LD50 at 336 h (mg/kg)
Numbers only; they are read as mg/kg.

## Input I would be grateful if you could share the reported LD50 at 336 h for `CC1(C)CC[C@]2(C(=O)O[C@H]3O[C@@H](CO)[C@H](O)[C@@H](O)[C@@H]3O)CC[C@]3(C)C(=CC[C@@H]4[C@@]5(C)CC[C@H](OC(=O)CCC(=O)OC6CCN(/[N+]([O-])=N/O[C@@H]7O[C@H](CO)[C@H](O)[C@H](O)[C@H]7O)CC6)C(C)(C)[C@@H]5CC[C@]43C)[C@@H]2C1` .
## Output 173

* * *

Tested on: HL-60
Test: Antiproliferative activity against human HL60 cells assessed as decrease in cell viability measured after 3 days by MTT assay
Format: functional, cell-based
Conditions: HL-60, 72 h
pIC50: −log10 of the molar value.
result type: pIC50

## Input I would be grateful if you could share the reported pIC50 for `CCOC(=O)N1CCN(/[N+]([O-])=N/Oc2ccc([N+](=O)[O-])cc2[N+](=O)[O-])CC1` .
## Output 6.30 to 6.70
